assay: A CellTox Green Cytotoxicity Assay to monitor cytotoxicity in HEK293 cells - 8 hour (AID 1224884); conditions: CellTox Green fluorescence; series mostly up to 76.8 µM; also: nearly all actives have a fitted effect of over 35% in size
Records with an inconclusive call do not appear. Calls of active or inactive are those of the source. Calls follow the shape of the dose curve; as a rule, active = well fitted activation curve with a large enough effect in the repeat runs; inconclusive = weak or mixed curves; inactive = flat fitted curve, though single readings scatter.
Respond with a class label; see active, inactive

>  <compound>
BrC(Br)Br

>  <assigned-category>
inactive

$$$$

Input: // return assay outcome for Nc1ccc([N+](=O)[O-])cc1Cl
Output: inactive

Input: Please answer likewise for O=C(NC(=O)c1c(F)cccc1F)Nc1cc(Cl)c(OC(F)(F)C(F)F)c(Cl)c1
Output: inactive

Input: Please answer likewise for ClC1=C(Cl)[C@]2(Cl)[C@H]3[C@H]([C@H]4C=C[C@H]3C4)[C@@]1(Cl)C2(Cl)Cl
Output: inactive

Input: Please answer likewise for C[C@H]1O[C@@H](O[C@H]2[C@@H](O)C[C@H](O[C@H]3[C@@H](O)C[C@H](O[C@H]4CC[C@@]5(C)[C@H](CC[C@@H]6[C@@H]5CC[C@]5(C)[C@@H](C7=CC(=O)OC7)CC[C@]65O)C4)O[C@@H]3C)O[C@@H]2C)C[C@H](O)[C@@H]1O
Output: inactive

Input: Please answer likewise for O=[N+]([O-])O.O=[N+]([O-])O.[Cd]
Output: inactive

Input: Please answer likewise for COc1ccc([N+](=O)[O-])cc1O
Output: inactive

Input: Please answer likewise for CC(C)(C)C(O)C(Oc1ccc(-c2ccccc2)cc1)n1cncn1 (stereo not given)
Output: inactive

Input: Please answer likewise for CCCCCCCCCCCCCCC(Br)C(=O)O (stereo not given)
Output: inactive

Input: Please answer likewise for O=[N+]([O-])c1ccc(Oc2ccc(C(F)(F)F)cc2[N+](=O)[O-])cc1
Output: inactive

Input: Please answer likewise for N#CSCSC#N
Output: inactive

Input: Please answer likewise for CNC(C)Cc1ccc2c(c1)OCO2 (stereo not given)
Output: inactive

Input: Please answer likewise for C[C@@H]1O[C@@H](O[C@H]2C[C@@H](O)[C@]3(CO)[C@H]4[C@H](O)C[C@]5(C)[C@@H](C6=CC(=O)OC6)CC[C@]5(O)[C@@H]4CC[C@]3(O)C2)[C@H](O)[C@H](O)[C@H]1O
Output: inactive

Input: Please answer likewise for COC[C@H](C)N(C(=O)CCl)c1c(C)csc1C
Output: inactive

Input: Please answer likewise for BrC(Br)C(Br)(Br)Br
Output: inactive

Input: Please answer likewise for N#C/C=C/C#N
Output: inactive

Input: Please answer likewise for C[CH2][Hg][N]1C(=O)C2C(C1=O)C1(Cl)C(Cl)=C(Cl)C2(Cl)C1(Cl)Cl (stereo not given)
Output: active

Input: Please answer likewise for CC(C)OC(=S)S
Output: inactive

Input: Please answer likewise for CC(C)N1C(=O)N(c2ccccc2)CSC1=NC(C)(C)C
Output: inactive

Input: Please answer likewise for COCC(=O)N(c1c(C)cccc1C)[C@H](C)C(=O)OC
Output: inactive

###

assay: A CellTox Green Cytotoxicity Assay to monitor cytotoxicity in HepG2 cells - 24 hour (AID 1224878); conditions: CellTox Green fluorescence; series mostly up to 76.8 µM; also: nearly all actives have a fitted effect of over 45% in size
Inconclusive results are not listed. Calls of active or inactive are those of the source. The call rests on the fitted dose curve; in most records, active means well fitted activation curve with a large enough effect in the repeat runs; inconclusive means weak or mixed curves; inactive means flat fitted curve, though single readings scatter.
measurement-kind: outcome

>  <compound>
N#Cc1ccccc1Cl

>  <outcome>
inactive

$$$$
>  <compound>
CC(C)N1C(=O)N(c2ccccc2)CSC1=NC(C)(C)C

>  <outcome>
inactive

$$$$
>  <compound>
CC(=O)C(Cl)(Cl)Cl

>  <outcome>
inactive

$$$$
>  <compound>
C[C@H]1O[C@@H](O[C@H]2[C@@H](O)C[C@H](O[C@H]3[C@@H](O)C[C@H](O[C@H]4CC[C@@]5(C)[C@H](CC[C@@H]6[C@@H]5CC[C@]5(C)[C@@H](C7=CC(=O)OC7)CC[C@]65O)C4)O[C@@H]3C)O[C@@H]2C)C[C@H](O)[C@@H]1O

>  <outcome>
inactive

$$$$
>  <compound>
O=C(Nc1ccc2[nH]ccc2c1)c1cc2cc(F)ccc2n1Cc1cccc(F)c1

>  <outcome>
inactive

$$$$
>  <compound>
O=c1c(C2CC(c3ccc(-c4ccc(Br)cc4)cc3)Cc3ccccc32)c(O)sc2ccccc12 (stereo unspecified)

>  <outcome>
inactive

$$$$
>  <compound>
c1ccc(OCC2CO2)cc1 (stereo unspecified)

>  <outcome>
inactive

$$$$
>  <compound>
N#CCc1ccc(Cl)cc1

>  <outcome>
inactive

$$$$
>  <compound>
C=CC(=O)N(C)C

>  <outcome>
inactive

$$$$
>  <compound>
Nc1ccc([N+](=O)[O-])cc1Cl

>  <outcome>
inactive

$$$$

Moving on to another compound below.
Input: Request the reported outcome associated with Oc1ccccc1Br
Output: inactive

###

Experiment: qHTS assay to identify small molecule agonists of the constitutive androstane receptor (CAR) signaling pathway - cell viability counter screen (AID 1224836); also: nearly all actives have a fitted effect of over 45% in size
Settings: HepG2-CYP2B6-hCAR viability, CellTiter-Fluor, 23 h, PK11195 added to every well; series mostly up to 92.4 µM
Description: U.S. Tox21 Program National Center for Advancing Translational Sciences [NCATS] NIH Chemical Genomics Center [NCGC] U.S. Environmental Protection Agency [EPA] National Institutes of Environmental Health Sciences [NIEHS] National Toxicology Program [NTP] U.S. Food and Drug Administration [FDA] […] Tox21 Assay Protocol Summary: A double-stable (hCAR and CYP2B6-2.2kb) transfected cell line, derived from human hepatoma (HepG2) cells, was utilized for the duration of the quantitative high-throughput screens. […]
Inconclusive results are not listed. Activity calls are given as the source filed them. Calls come from the whole dose curve; as a rule, active = well fitted cell-killing curve with a large enough effect in the repeat runs; inconclusive = weak or mixed curves, or effect the other way; inactive = flat fitted curve, though single readings scatter.
Respond with a class label; see yes (1) = active, no (0) = inactive

Illustrative cases are given below, each with its answer.
>  <compound>
CC(C)(C)c1cc([N+](=O)[O-])cc(C(C)(C)C)c1O

>  <assigned-category>
yes (1)

$$$$
>  <compound>
CC1(C)C(/C=C(\Cl)C(F)(F)F)C1C(=O)OC(C#N)c1cccc(Oc2ccccc2)c1 (configuration not stated)

>  <assigned-category>
no (0)

$$$$
>  <compound>
CCOP(=S)(OCC)SCCS(=O)(=O)CC

>  <assigned-category>
no (0)

$$$$
>  <compound>
CC(C)CCCCCOC(=O)c1ccccc1C(=O)OCCCCCC(C)C

>  <assigned-category>
no (0)

$$$$
>  <compound>
C=COCCCl

>  <assigned-category>
no (0)

$$$$

Input: // return assay outcome for Fc1ccc(Oc2ccnc3cc(Cl)cc(Cl)c23)cc1
Output: no (0)

Input: Please answer likewise for N#C/C=C/c1ccccc1
Output: no (0)

Input: Please answer likewise for CC(Cl)CN(C)C (configuration not stated)
Output: no (0)

Input: Please answer likewise for C[CH2][Hg][N]1C(=O)C2C(C1=O)C1(Cl)C(Cl)=C(Cl)C2(Cl)C1(Cl)Cl (configuration not stated)
Output: yes (1)

Input: Please answer likewise for COCC(=O)N(c1c(C)cccc1C)[C@H](C)C(=O)OC
Output: no (0)

Input: Please answer likewise for Cc1cc(C)c(C2=C(OC(=O)CC(C)(C)C)C3(CCCC3)OC2=O)c(C)c1
Output: no (0)

Input: Please answer likewise for CCCCCCCCc1ccc(O)cc1
Output: yes (1)

###

molecular target: Cytochrome P450 3A4 (Homo sapiens); experiment: Cytochrome P450 Family 3 Subfamily A Member 4 (CYP3A4) small molecule antagonists: luciferase reporter qHTS assay (AID 1671201); conditions: P450-Glo CYP3A4 enzyme, luciferin luminescence, 1 h; series mostly up to 115 µM; also: nearly all actives have a fitted effect of over 50% in size
Records with an inconclusive call do not appear. The source made the active and inactive calls. Calls come from the whole dose curve; as a rule, active = well fitted inhibition curve with a large enough effect in the repeat runs; inconclusive = weak or mixed curves; inactive = no such curve, though single readings can be large or run the other way.
Respond with a class label; see active, inactive

Illustrative cases are given below, each with its answer.
>  <molecule>
O=C(Cl)c1ccc(Cl)cc1

>  <assigned-category>
inactive

$$$$
>  <molecule>
C=CC(=O)OCC(COC(=O)C=C)(COC(=O)C=C)COC(=O)C=C

>  <assigned-category>
active

$$$$
>  <molecule>
c1ccc2c(c1)OCC(C1=NCCN1)O2 (configuration not stated)

>  <assigned-category>
inactive

$$$$
>  <molecule>
CC(C)CCCCCOC(=O)c1ccccc1C(=O)OCCCCCC(C)C

>  <assigned-category>
active

$$$$
>  <molecule>
[Cl][Sn]([c]1ccccc1)([c]1ccccc1)[c]1ccccc1

>  <assigned-category>
active

$$$$

Input: // return assay outcome for O=C(CCl)C(Cl)Cl
Output: inactive

Input: Please answer likewise for CCc1ccccc1C
Output: inactive

###

target: Cytochrome P450 1A2 (Homo sapiens); assay: Cytochrome P450 Family 1 Subfamily A Member 2 (CYP1A2) small molecule antagonists: luciferase reporter qHTS assay (AID 1671199); conditions: P450-Glo CYP1A2 enzyme, luciferin luminescence, 1 h; series mostly up to 115 µM; also: nearly all actives have a fitted effect of over 50% in size
Records with an inconclusive call do not appear. Activity calls are given as the source filed them. The call rests on the fitted dose curve; in most records, active means well fitted inhibition curve with a large enough effect in the repeat runs; inconclusive means weak or mixed curves; inactive means no such curve, though single readings can be large or run the other way.
Respond with a class label; see 1 (yes) = active, 0 (no) = inactive

Input: // return assay outcome for CN(C)S(=O)(=O)N(SC(F)(Cl)Cl)c1ccccc1
Output: 1 (yes)

Input: Please answer likewise for CCOP(=S)(OCC)SCS(=O)(=O)CC
Output: 1 (yes)

Input: Please answer likewise for CCOC(=O)c1ccccc1S(=O)(=O)NC(=O)Nc1nc(Cl)cc(OC)n1
Output: 0 (no)

Input: Please answer likewise for C[C@]12CC[C@@H]3c4ccc(OC(=O)N(CCCl)CCCl)cc4CC[C@H]3[C@@H]1CC[C@@H]2O
Output: 0 (no)

Input: Please answer likewise for O=C1C=CC(=O)c2ccccc21
Output: 1 (yes)

Input: Please answer likewise for CC(=O)c1cc(C(C)(C)C)cc2c1CCC2(C)C
Output: 1 (yes)

Input: Please answer likewise for Cl/C=C\CCl
Output: 1 (yes)

Input: Please answer likewise for CC(Cl)CN(C)C (stereo unspecified)
Output: 0 (no)

Input: Please answer likewise for Cn1cc(C2=C(c3cn(C4CCN(Cc5ccccn5)CC4)c4ccccc34)C(=O)NC2=O)c2ccccc21
Output: 0 (no)

Input: Please answer likewise for C[C@]12CC[C@H](O)C[C@H]1CC[C@@H]1[C@@H]2C[C@@H](O)[C@]2(C)[C@@H](C3=CC(=O)OC3)CC[C@]12O
Output: 0 (no)

Input: Please answer likewise for CC(C)CC(C)(c1ccc(O)cc1)c1ccc(O)cc1
Output: 0 (no)

Input: Please answer likewise for NC(=O)CCl
Output: 0 (no)

Input: Please answer likewise for ClC1=C(Cl)C2(Cl)C3C(Cl)C(Cl)CC3C1(Cl)C2(Cl)Cl (stereo unspecified)
Output: 0 (no)

Input: Please answer likewise for CC(=O)/C=C/c1ccc2c(c1)OCO2
Output: 1 (yes)

Input: Please answer likewise for O=C1NCN(c2ccccc2)C12CCN(CC1COc3ccccc3O1)CC2 (stereo unspecified)
Output: 0 (no)
